- experimental_target: His-Spt5 (fused to Spt4) (Homo sapiens, UniProt O00267)
- Construct: His-Rpb1 and His-Spt5 (fused to Spt4 to increase its stability) were each expressed in E. coli; Spt4 (fusion partner); His tag (N); purified on nickel agarose beads
- method_notes: Binding assay by intrinsic fluorescence of purified His-Spt5 (fused to Spt4)

>  <molecule>
Nc1ccccc1SC(CC(=O)c1cccs1)c1cccs1 (stereo not shown) [SPI-18]

>  <experimental_target>
His-Spt5 (fused to Spt4) (Homo sapiens, UniProt O00267)

>  <IC50, µM>
40

$$$$

###

- experimental_target: Spt5-Pol II interaction (NGN and KOW 1&2 of Spt5, coiled-coil domain of Rpb1) (Homo sapiens, UniProt P24928)
- Construct: the region spanning NGN and KOW 1&2 of Spt5 and the coiled-coil (CC) domain of Rpb1; the coiled-coil (CC) domain of Rpb1, the large subunit of Pol II, were fused to N-RL and C-RL, respectively; bacterial cell lysate used unpurified
- Sequence (P24928 8-370 limits assumed): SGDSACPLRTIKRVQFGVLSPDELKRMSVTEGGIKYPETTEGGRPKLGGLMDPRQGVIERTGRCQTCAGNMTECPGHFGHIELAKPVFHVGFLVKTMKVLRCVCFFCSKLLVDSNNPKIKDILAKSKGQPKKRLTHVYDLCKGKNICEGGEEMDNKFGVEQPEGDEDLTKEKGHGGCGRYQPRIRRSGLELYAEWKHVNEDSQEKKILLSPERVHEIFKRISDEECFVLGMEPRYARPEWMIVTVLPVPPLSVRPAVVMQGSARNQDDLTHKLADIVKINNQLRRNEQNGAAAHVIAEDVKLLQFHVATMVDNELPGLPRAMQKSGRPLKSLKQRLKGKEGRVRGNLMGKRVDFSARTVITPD
- method_notes: Split-Renilla luciferase (RL) complementation assay of Spt5-Pol II interaction
pIC50: −log10 of the molar value.
Reported values of pIC50 for individual entries

>  <compound>
COc1ccc(C=CC(=O)c2cc(O)ccc2O)cc1

>  <pIC50>
4.60

$$$$
>  <compound>
Nc1ccccc1SC(CC(=O)c1cccs1)c1cccs1 (centres unmarked)

>  <pIC50>
4.48

$$$$

FYI, the data here is from patent US12661353B2.
